EXPERIMENT: Multi-component pharmacokinetic study of GQD, GQD-GC and single herb extracts in rats (plasma, LC/MS/MS)
Type: in vivo, Sprague-Dawley rats
STUDY CONDITIONS: male, Sprague-Dawley, rat, in vivo; GC (Gan-Cao) group: rats, oral extract 2.36 g/kg, plasma; read-out: Cmax

- ITEM SMILES: "O=C(/C=C/c1ccc(O[C@@H]2O[C@H](CO)[C@@H](O)[C@H](O)[C@H]2O)cc1)c1ccc(O)cc1O"
  Cmax [ng/mL]: 2.17

----------
EXPERIMENT: Multi-component pharmacokinetic study of GQD, GQD-GC and single herb extracts in rats (plasma, LC/MS/MS)
Format: in vivo, Sprague-Dawley rats
STUDY CONDITIONS: male, Sprague-Dawley, rat, in vivo, po, 9.45 g/kg

- ITEM SMILES: "O=c1c(-c2ccc(O)cc2)coc2cc(O)ccc12"
  Cmax, ng/mL: 188

----------
EXPERIMENT: Multi-component pharmacokinetic study of GQD, GQD-GC and single herb extracts in rats (plasma, LC/MS/MS)
Format: in vivo, Sprague-Dawley rats
STUDY CONDITIONS: male, Sprague-Dawley, rat; GQD-GC group (GQD without Gan-Cao): rats, oral 16.5 g/kg, plasma; read-out: T1/2 (converted)
Response field label takes criterion met when half-life is strictly below 4 h and criterion not met in all other cases.

- MOLECULE: "COc1ccc2cc3[n+](cc2c1OC)CCc1cc2c(cc1-3)OCO2 [Compound 24, berberine]"
  CLASS NAME: "criterion not met"
- MOLECULE: "COc1c(O)c(O[C@@H]2O[C@H](C(=O)O)[C@@H](O)[C@H](O)[C@H]2O)cc2oc(-c3ccccc3)cc(=O)c12 [Compound 38, lateriflorein 7-O-glucuronide]"
  CLASS NAME: "criterion met"
- MOLECULE: "O=C(O)[C@H]1O[C@@H](Oc2cc3oc(-c4ccccc4)cc(=O)c3c(O)c2O)[C@H](O)[C@@H](O)[C@@H]1O [Compound 17, baicalin]"
  CLASS NAME: "criterion not met"
- MOLECULE: "O=c1c(-c2ccc(O)cc2)coc2cc(O[C@@H]3O[C@H](CO)[C@@H](O)[C@H](O)[C@H]3O)cc(O)c12 [Compound 4, genistin]"
  CLASS NAME: "criterion not met"
- MOLECULE: "O=c1c(-c2ccc(O)cc2)coc2c(C3OC(COC4OCC(O)(CO)C4O)C(O)C(O)C3O)c(O)cc(O)c12 (stereo not drawn) [Compound 6]"
  CLASS NAME: "criterion met"
- MOLECULE: "COc1ccc(C2=CC(=O)OC2Cc2ccc(O)cc2)c(OC2OC(CO)C(O)C(O)C2O)c1 [Compound 41, (4S)-puerol B 2″-O-glucopyranoside]"
  CLASS NAME: "criterion not met"
- MOLECULE: "COc1c(O)cc(O)c2c(=O)cc(-c3ccccc3)oc12 [Compound 8, wogonin]"
  CLASS NAME: "criterion not met"
- MOLECULE: "O=c1c(-c2ccc(O)cc2)coc2c([C@@H]3O[C@H](CO)[C@@H](O)[C@H](O)[C@H]3O)c(O)ccc12 [Compound 7, puerarin]"
  CLASS NAME: "criterion not met"
- MOLECULE: "COc1ccc(-c2coc3cc(O[C@@H]4O[C@H](CO)[C@@H](O)[C@H](O)[C@H]4O)ccc3c2=O)cc1 [Compound 39, ononin]"
  CLASS NAME: "criterion met"
- MOLECULE: "COc1cc2c(cc1OC)-c1cc3ccc4c(c3c[n+]1CC2)OCO4 [Compound 22, epiberberine]"
  CLASS NAME: "criterion not met"
- MOLECULE: "COc1cc2c(cc1O)CC[n+]1cc3c(OC)c(OC)ccc3cc1-2 [Compound 23, jatrorrhizine]"
  CLASS NAME: "criterion met"
- MOLECULE: "COc1c(O)cc(OC2OC(CO)C(O)C(O)C2O)c2c(=O)cc(-c3ccccc3)oc12 (stereo not drawn) [Compound 13, wogonin 5-O-glucoside]"
  CLASS NAME: "criterion not met"
- MOLECULE: "COc1ccc2c(c1O)-c1c(O)c(OC)cc3c1[C@H](C2)[N+](C)(C)CC3 [Compound 19, magnoflorine]"
  CLASS NAME: "criterion not met"
- MOLECULE: "COc1ccc(-c2coc3c(C4OC(COC5OCC(O)(CO)C5O)C(O)C(O)C4O)c(O)ccc3c2=O)cc1 (stereo not drawn) [Compound 5]"
  CLASS NAME: "criterion not met"
- MOLECULE: "O=C(O)[C@H]1O[C@@H](Oc2cc(O)c3c(=O)cc(-c4ccccc4)oc3c2O)[C@H](O)[C@@H](O)[C@@H]1O [Compound 14, norwogonin 7-O-glucuronide]"
  CLASS NAME: "criterion not met"
